tested on: NCI-H322M lung; test: NCI-60 one-dose screen, 48 h; details: 10 µM unless noted
About 83,000 compounds went through this panel and 20% of them were active in at least one assay; those are over-represented in the sample as a whole. The source made the active and inactive calls. How the source made its calls: active means growth percent below 10; inactive means the rest.
Labels: active, inactive

Oc1ccc(-c2nc(-c3ccc4oc5ccc(-c6[nH]c(-c7ccc(O)cc7)nc6-c6ccccc6)cc5c4c3)c(-c3ccccc3)[nH]2)cc1 | inactive
Cc1nc(Nc2cn[nH]c2C(=O)Nc2ccc(CN3CCN(C)CC3)cc2)c2ccsc2n1 | inactive
COC(=O)c1c2c(c(C)[n+]([O-])c1C)C(=O)C=C(NCc1ccccc1)C2=O | active

----------
system: M14 melanoma; experiment: NCI-60 one-dose screen, 48 h (100 = growth as untreated, 0 = no growth, -100 = all killed); details: 10 µM unless noted
Compounds without any hit were thinned out: in the full panel of roughly 83,000, 20% have a hit.
property_name: growth (%)

C=CCN1C(=O)/C(=c2\sc3n(c2=O)NC2C(N=3)N(CC)C(=O)N2CC)c2ccccc21 (stereo not given) | 16.5
CCN1CCN(C(=S)SCC(=O)Nc2nc3ccc(C)cc3s2)CC1 | 124
O=C(c1nc2ccccc2[nH]1)C1[C@@H](c2cccc(O)c2)C2CC3CCCCC3N2[C@@]12C(=O)Nc1cc(Cl)ccc12 (stereo not given in full) | 29.2
COc1cc(CNC(=O)Cc2ccccc2)ccc1OCc1cn(-c2ccc(F)cc2)nn1 | 101
CCCCN1CCN(c2ccc3nc(-c4ccc5nc(-c6ccc(OCC)cc6)[nH]c5c4)[nH]c3c2)CC1 | 32.7
CC[C@@H](C)[C@H](NC(=O)Cn1cc(CNC(=O)[C@@H](NC(=O)OCc2ccccc2)C(C)C)nn1)C(=O)O | 107
S=C1NC2(c3ccccc3)CCC(=S)N2c2ccccc21 (stereo not given) | 103
O=C(Cn1cc(COc2ncnc3c2cnn3-c2ccccc2)nn1)Nc1cccc2ccccc12 | 105
Cc1cccc(NC(=O)c2sc3nc4c(cc3c2N)CCCC4)c1C | 4.97
COc1cc(/C=C/C(=O)c2c(C)nc3ccccc3c2/C=C/c2ccccc2)cc(OC)c1OC | -6.24
COc1ccccc1CNC(=O)C1c2ccccc2C(=O)N(CC(C)C)C1c1cccs1 (stereo not given) | 61.6
COc1ccc(-n2c(C(O)c3ccccc3)nn(CN3CCOCC3)c2=S)cc1 (stereo not given) | 95.2
FC(F)(F)c1cccc(CNC2CCN(CCc3ccccc3)CC2)c1 | 49.2
O=c1oc2ccc(-c3ccc(F)cc3F)cc2c(=O)n1-c1ccc(Cl)c(C(F)(F)F)c1 | 21.5
CSc1nc2c(c(=O)[nH]1)N=C1c3ccccc3C(=O)C1C(c1ccc(F)cc1)N2 (stereo not given) | 43.4
Brc1ccc(Oc2ccc(Nc3ncnc4onc(-c5ccccc5)c34)cc2)cc1 | 98.3
COc1ccc(N)c(-c2cc3c(c4c2[nH]c2ccc(OC)cc24)CCCC3)c1 | 78.5
Nc1ccccc1-c1ccc(-c2ccc(Cl)cc2)c2c1[nH]c1ccccc12 | 49.3
COc1ccc(OC)c(N(CCN2C(=O)c3ccccc3C2=O)C(=O)CCl)c1 | 84.2
COC(=O)c1c2c(c(C)[n+]([O-])c1C)C(=O)C=C(NCc1ccccc1)C2=O | -80.1

----------
System: MALME-3M melanoma
Test: NCI-60 one-dose screen, 48 h
Settings: 10 µM unless noted
Procedure: Cells are grown in 96 well plates and exposed to the test compound for 48 hours. Compounds are tested at a single concentration, which is 10^-5 M for most compounds. The reported endpoint is percent growth (GI% or GIPRCNT), where numbers from 0 - 100% represent growth inhibition, and numbers from -100% - 0 represent cell death. For example, a value of 40 represents 60% growth inhibition. A value of 0 means no net growth occurred over the course of the experiment. […]
Compounds without any hit were thinned out: in the full panel of roughly 83,000, 20% have a hit. Activity calls are given as the source filed them. Rule for the calls: active = growth percent below 10; inactive = the rest.
Labels: Yes for active, No for inactive

Cc1ccc2cccc(Oc3ccc(Nc4ncnc5onc(-c6ccccc6)c45)cc3)c2n1 | No
O=C1C(=O)c2c(ccc3ccccc23)-c2ccccc21 | Yes
COc1cc(CNC(=O)Cc2ccccc2)ccc1OCc1cn(-c2ccc(F)cc2)nn1 | No
COC(=O)c1c2c(c(C)[n+]([O-])c1C)C(=O)C=C(NCc1ccc(F)c(F)c1)C2=O | Yes
CC[C@]1(O)C[C@@H]2CN(CCc3c([nH]c4ccccc34)[C@@](C(=O)OC)(c3cc4c(cc3OC)N(C)[C@H]3[C@@](O)(C(=O)OC)[C@H](OC(C)=O)[C@]5(CC)C=CCN6CC[C@]43[C@@H]65)C2)C1 | No
Nc1cccc(Nc2cc(S(=O)(=O)O)c(N)c3c2C(=O)c2ccccc2C3=O)c1 | No
COCCN(C(=O)Cc1cccs1)C(C(=O)NCc1ccc(OC)cc1)c1ccc(C(C)C)cc1 (stereo not given) | No
CCOc1cc2c(cc1OCC)C(c1cc(C)c(O)c(C)c1)NCC2 (stereo not given) | No
COc1cc(OC)cc(N2C(=O)N(Cc3ccc(C(C)(C)C)cc3)c3ccccc3S2(=O)=O)c1 | No
N#C/C(=C\c1c(-c2ccccc2)[nH]c2ccccc12)S(=O)(=O)c1ccccc1 | No
O=C(NCc1ccco1)C1CN(c2ccc(Cl)cc2)N(c2ccc(Cl)cc2)C1=O (stereo not given) | No
COc1cccc2cc(N(C)c3nc(C)nc4ccsc34)ccc12 | No
Oc1ccc(-c2nc(-c3ccc4oc5ccc(-c6[nH]c(-c7ccc(O)cc7)nc6-c6ccccc6)cc5c4c3)c(-c3ccccc3)[nH]2)cc1 | No
O=C(NCCCN1CCC(N2CCCCC2)CC1)C1=Cc2cc(Br)ccc2OC1 | No
CC(=O)O[C@@H]1/C=C/C(=O)N[C@@H](C)CCC/C=C/[C@@H]2CCC[C@H]21 | No
CCOc1ccc2c(c1)CN(Cc1ccc(Cl)cc1)CO2 | No
Nc1ccc(-n2c(=O)oc3ccc(Cl)cc3c2=O)c(Cl)c1 | Yes
O=C(Nc1ccc(I)cc1F)c1cc(Cl)ccc1O | Yes
CCCCc1ccc(NS(=O)(=O)c2cc3c4c(c2)CCN4C(=O)CC3)cc1 | No
O=c1oc2ccc(Cl)cc2c(=O)n1-c1ccc(F)cc1F | Yes
C1CCN(c2nc(N3CCCCC3)nc(N3CCOCC3)n2)CC1 | No
CCOc1ccccc1CN1CCc2nc3cc(C(C)(C)C)[nH]n3c(=O)c2C1 | No
COc1ccccc1C(=O)O/N=C(\N)Cc1cccc2ccccc12 | No
CCOC(=O)c1ccc(N=Cc2sc(=O)[nH]c2O)cc1 | No
Nc1nc2c(ncn2[C@@H]2O[C@H](CS)[C@@H](O)[C@H]2O)c(=O)[nH]1 | No
O=c1oc2ccc(Cl)cc2c(=O)n1-c1cc(C(F)(F)F)cc(C(F)(F)F)c1 | Yes
COc1ccc(OC)c(/C=C/C(=O)c2c(C)nc3ccccc3c2/C=C/c2ccccc2)c1 | No
CCCSC1=NC2C(N(CC)C(=O)N2CC)N1/N=C/C=C/c1ccccc1[N+](=O)[O-] (stereo not given) | No
Nc1nc(Nc2cccc(F)c2)nc2ccccc12 | No
CC1(O)COCCCCOc2c(CN)cccc2NC(=O)c2nc(cnc2N)-c2ccc(cc2)S(=O)(=O)C(C)(C)C1 (stereo not given) | Yes
Cc1ccc(S(=O)c2ccc([N+](=O)[O-])c3nonc23)cc1 (stereo not given) | No
O=C(NN1C(=O)CSC1c1ccc(Cl)cc1)c1[nH]c2ccc(F)cc2c1-c1ccccc1 (stereo not given) | No
COc1cc(C(=O)O/N=C(\N)Cc2cccc3ccccc23)cc(OC)c1OC | Yes
O=C1/C=C/[C@@H](O)[C@@H]2C[C@@H](O)C[C@H]2/C=C/CCCCO1 | No
COC(=O)c1c2c(c(C)[n+]([O-])c1C)C(=O)C=C(NCc1ccccc1)C2=O | Yes
COc1ccc(/C=C/C(=O)c2ccc(Nc3nc(NCCO)nc(Nc4ccc(Cl)cc4)n3)cc2)cc1 | No
CN(C)c1ccc(N=Cc2ccc(N3CCOCC3)cc2)cc1 | No
COc1cc(C(C)n2cc(-c3ccccc3)nn2)ccc1OC1CCCCC1 (stereo not given) | No
O=C(Cn1cc(COc2ncnc3c2cnn3-c2ccccc2)nn1)Nc1ccccn1 | No
COc1ccc2[nH]c(O)c(N=NC(=O)c3oc4ccccc4c3C)c2c1 | Yes
